Cited source: patent US20240368132A1

target: ROCK2 (Homo sapiens, UniProt O75116)
Sequence (O75116 whole entry): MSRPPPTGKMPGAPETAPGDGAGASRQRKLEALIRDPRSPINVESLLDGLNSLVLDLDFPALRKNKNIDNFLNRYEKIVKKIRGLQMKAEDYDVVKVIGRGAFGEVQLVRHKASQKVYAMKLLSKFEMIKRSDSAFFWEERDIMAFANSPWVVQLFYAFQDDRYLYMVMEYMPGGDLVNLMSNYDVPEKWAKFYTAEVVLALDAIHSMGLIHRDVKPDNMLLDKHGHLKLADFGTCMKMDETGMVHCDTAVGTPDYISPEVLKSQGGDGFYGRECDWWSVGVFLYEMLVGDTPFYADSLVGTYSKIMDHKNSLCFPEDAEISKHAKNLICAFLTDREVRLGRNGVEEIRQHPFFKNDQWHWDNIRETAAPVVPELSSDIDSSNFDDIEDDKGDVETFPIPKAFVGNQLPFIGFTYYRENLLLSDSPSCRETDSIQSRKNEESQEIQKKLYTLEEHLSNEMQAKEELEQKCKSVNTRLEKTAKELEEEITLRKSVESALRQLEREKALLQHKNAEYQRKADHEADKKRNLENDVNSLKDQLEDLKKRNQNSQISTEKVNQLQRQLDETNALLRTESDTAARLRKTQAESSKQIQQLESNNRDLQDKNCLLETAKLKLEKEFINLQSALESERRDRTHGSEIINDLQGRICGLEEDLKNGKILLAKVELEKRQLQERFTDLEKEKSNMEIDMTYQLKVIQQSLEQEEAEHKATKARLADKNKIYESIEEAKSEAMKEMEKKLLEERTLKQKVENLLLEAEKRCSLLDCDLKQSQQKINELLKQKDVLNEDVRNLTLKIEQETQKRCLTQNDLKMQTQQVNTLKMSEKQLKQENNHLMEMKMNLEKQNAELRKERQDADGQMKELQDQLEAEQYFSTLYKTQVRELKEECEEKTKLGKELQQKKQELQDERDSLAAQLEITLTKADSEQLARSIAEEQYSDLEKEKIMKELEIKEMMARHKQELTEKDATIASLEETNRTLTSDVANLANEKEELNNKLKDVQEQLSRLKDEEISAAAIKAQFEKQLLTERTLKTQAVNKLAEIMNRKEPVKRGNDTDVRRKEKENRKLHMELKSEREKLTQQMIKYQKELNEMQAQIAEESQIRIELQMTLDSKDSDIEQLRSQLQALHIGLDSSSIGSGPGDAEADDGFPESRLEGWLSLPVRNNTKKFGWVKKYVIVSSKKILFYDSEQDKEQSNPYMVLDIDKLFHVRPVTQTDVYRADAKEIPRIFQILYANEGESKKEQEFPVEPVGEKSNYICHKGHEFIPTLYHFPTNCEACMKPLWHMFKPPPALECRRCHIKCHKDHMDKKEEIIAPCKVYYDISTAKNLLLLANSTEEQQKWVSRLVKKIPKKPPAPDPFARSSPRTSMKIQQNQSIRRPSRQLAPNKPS
readoutType: IC50

| compound | IC50 |
| --- | --- |
| Cn1cc(C(=O)Nc2cccc(-c3nnc(Nc4ccc5[nH]ncc5c4)o3)c2)cn1 [Example 36] | < 300 nM |
| COc1cc(-n2nc(Nc3ccc4[nH]ncc4c3Cl)c3ccccc32)ccc1OCC(=O)NC(C)C [Example 18] | 300 to 3000 nM |

Please look at the following compound next.
Query: // fetch ROCK2 (Homo sapiens, UniProt O75116) IC50 for COc1cc(-n2nc(C(F)(F)F)cc2Nc2ccc3[nH]ncc3c2Cl)ccc1OCC(=O)NC(C)C [Example 70]
Result: 300 to 3000 nM
